# test: yeast display, Sf9 membrane polyspecificity reagent, FACS + sequencing; frameworks hold sequencing errors
endpointName: polyreactivity (PSR sort gate)

residues	experimentalResult
QVQLVETGGGLVQAGGSLRLSCAGSGHIFPTNARGWYRQSPWKARELVAVISESVGSTYYADSVKGRFTISRDNSKNTVYLQMNSLKPEDTAVYYCAKQSLYPSLDADYDYWGQGTQVNVSS	low polyreactivity
QVQLVESGGGLVQAGGSLRLSCAASGYIFVKNAMGWYRQEPGKERELVAAISSSGGSTYYADSVKGRFTISRDNAKNTVYLQMNSLKPEDTAVYYCNVYGSYTSVSRQSDWWPDYGYWGQGTQVTVSS	low polyreactivity
